System: PlcR regulon (plcA promoter-lacZ fusion)
test_method_notes: Competition studies of PapR7-derived peptides with endogenous PapR, β-galactosidase (lacZ reporter) assay
Assay type: cell-based, B. thuringiensis 407 Cry- plcA'Z (Bt A'Z)
protocol_conditions: 2.5 μM peptide, Bt A'Z, added at late-exponential phase (OD600 1.8 ± 0.1), normalized to untreated cells, mean, n = 9
Where a SMILES comes first, the peptide text is derived from it. [ ]: non-standard residue; d: D form.
readout_kind: reduction of plcA'Z activity (%)

>  <compound>
CC(C)C[C@H](NC(=O)[C@H](CC(=O)O)NC(=O)[C@H](C)N)C(=O)N1CCC[C@H]1C(=O)N[C@@H](Cc1ccccc1)C(=O)N[C@H](CCC(=O)O)C(=O)N[C@@H](C)C(N)=O [PapR7-dE6:F7A] (H-ADLPF[dE]A-NH2; N-terminus assumed)

>  <readout_kind>
reduction of plcA'Z activity

>  <measured_number>
65

$$$$
>  <compound>
CC(C)C[C@H](NC(=O)[C@H](CC(=O)O)NC(=O)[C@H](C)N)C(=O)N1CCC[C@H]1C(=O)N[C@@H](Cc1ccccc1)C(=O)N[C@H](CCC(=O)O)C(=O)N[C@H](Cc1ccccc1)C(N)=O [PapR7-dE6:dF7] (H-ADLPF[dE][dF]-NH2; N-terminus assumed)

>  <readout_kind>
reduction of plcA'Z activity

>  <measured_number>
71

$$$$
>  <compound>
CC(C)C[C@H](NC(=O)[C@H](CC(=O)O)NC(=O)[C@H](C)N)C(=O)N1CCC[C@H]1C(=O)N[C@@H](Cc1ccccc1)C(=O)N[C@@H](CCC(=O)O)C(=O)N[C@H](Cc1ccccc1)C(N)=O [PapR7-dF7, reference compound] (H-ADLPFE[dF]-NH2; N-terminus assumed)

>  <readout_kind>
reduction of plcA'Z activity

>  <measured_number>
63

$$$$
>  <compound>
CC(C)C[C@H](NC(=O)[C@H](CC(=O)O)NC(=O)[C@H](C)N)C(=O)N1CCC[C@H]1C(=O)N[C@@H](Cc1ccccc1)C(=O)N[C@H](CCC(=O)O)C(=O)N[C@@H](Cc1ccccc1)C(N)=O [PapR7-dE6, reference compound] (H-ADLPF[dE]F-NH2; N-terminus assumed)

>  <readout_kind>
reduction of plcA'Z activity

>  <measured_number>
65

$$$$
